Target: APOL1 G1 (Homo sapiens, UniProt O14791, I384M/S342G)
Sequence (O14791 28-398 S342G/I384M): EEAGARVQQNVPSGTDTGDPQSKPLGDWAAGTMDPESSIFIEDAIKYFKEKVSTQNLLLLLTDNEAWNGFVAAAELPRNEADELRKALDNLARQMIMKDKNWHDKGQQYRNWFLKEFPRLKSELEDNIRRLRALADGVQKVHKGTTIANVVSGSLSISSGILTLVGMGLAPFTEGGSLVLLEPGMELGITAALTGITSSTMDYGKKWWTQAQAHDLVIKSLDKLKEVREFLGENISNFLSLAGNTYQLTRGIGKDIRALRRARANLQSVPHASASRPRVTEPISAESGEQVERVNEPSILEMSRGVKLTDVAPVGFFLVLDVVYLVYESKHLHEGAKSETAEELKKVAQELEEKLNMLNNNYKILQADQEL
Experiment: MultiTox-Fluor Multiplex Cytotoxicity Assay, tet-inducible APOL1 G1 T-REx-HEK293 cells
Format: cell-based
Parameters: expressed in transfected cells; host or cells: T-REx HEK293, clone G1 DC3.25 (pAAVS1-Puro-APOL1 G1)
Conditions: HEK293, Multi-Tox Assay; APOL1 variant (G0/G1/G2) of the HEK293 cells not given; read-out: Multi-Tox Assay IC90
MEASURED PROPERTY: IC90

Use these answered entries as a reference point.
molecule="CCC1CC2(CC(C)N1)OCCc1cc(Cl)sc12 (mixture of isomers)" result="50 to 500 nM"
molecule="C[C@H]1C[C@@]2(C[C@@H](c3cccc(S(C)(=O)=O)c3)N1)OCCc1cc(Cl)sc12 (racemic)" result="50 to 500 nM"
molecule="C[C@H]1C[C@@]2(C[C@@H](c3cnn4ccccc34)N1)OCCc1cc(Cl)sc12 (racemic)" result="50 to 500 nM"
molecule="C[C@H]1C[C@@]2(C[C@@H](c3ccnnc3)N1)OCCc1cc(Cl)sc12 (racemic)" result="< 50 nM"

Inquiry: Identify the reported IC90 for the following entry. COC(=O)Cn1cc([C@@H]2C[C@]3(C[C@H](C)N2)OC[C@@H](O)c2cc(Cl)sc23)nn1
Reply text: > 500 nM

Inquiry: Identify the reported IC90 for the following entry. CC1CC2(CC(C3CCC3)N1)OCCc1cc(Cl)sc12 (mixture of isomers)
Reply text: 50 to 500 nM

Inquiry: Identify the reported IC90 for the following entry. C[C@H]1C[C@@]2(C[C@@H](c3cn(CC4CCC4)nn3)N1)OC[C@@H](O)c1cc(Cl)sc12
Reply text: 50 to 500 nM

Inquiry: Identify the reported IC90 for the following entry. C[C@H]1C[C@@]2(C[C@@H](c3ccnn3C)N1)OCCc1cc(Cl)sc12 (racemic)
Reply text: > 500 nM
